The listing below reports IC50 for compounds tested on Cholinesterase (Homo sapiens, UniProt P06276).
Sequence (P06276 whole entry): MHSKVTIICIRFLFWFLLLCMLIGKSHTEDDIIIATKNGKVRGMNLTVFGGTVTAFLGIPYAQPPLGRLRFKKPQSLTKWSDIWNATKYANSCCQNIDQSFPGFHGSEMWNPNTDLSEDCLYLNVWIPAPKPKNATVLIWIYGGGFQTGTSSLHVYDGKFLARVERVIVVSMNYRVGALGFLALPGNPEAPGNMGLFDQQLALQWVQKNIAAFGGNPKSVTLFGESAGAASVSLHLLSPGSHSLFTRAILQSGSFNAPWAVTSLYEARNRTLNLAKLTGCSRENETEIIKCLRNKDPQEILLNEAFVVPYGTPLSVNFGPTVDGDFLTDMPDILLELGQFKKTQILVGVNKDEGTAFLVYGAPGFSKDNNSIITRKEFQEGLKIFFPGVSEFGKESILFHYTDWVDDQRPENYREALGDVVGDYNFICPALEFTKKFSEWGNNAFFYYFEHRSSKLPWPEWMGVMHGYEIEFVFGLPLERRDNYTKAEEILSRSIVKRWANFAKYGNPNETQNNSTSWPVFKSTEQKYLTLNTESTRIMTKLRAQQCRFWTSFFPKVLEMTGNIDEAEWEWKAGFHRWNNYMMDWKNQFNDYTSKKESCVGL
Give a bare numeral; the unit nM is implied.

input: Reported IC50 for `C[C@@H](c1cccc(OC(=O)NCCCCCCNc2c3c(nc4cc(Br)ccc24)CCCC3)c1)N(C)C` : what is it?
output: 9.65

input: Likewise for `O=C(NCCCCCNc1c2c(nc3cc(Cl)ccc13)CCCC2)Oc1ccc2cc[nH]c2c1` ?
output: 48.6

input: Entry to check: `C[C@@H](c1cccc(OC(=O)NCCCNc2c3c(nc4ccccc24)CCCC3)c1)N(C)C`
output: 23.2

input: What would you report for `C[C@@H](c1cccc(OC(=O)NCCCCCNc2c3c(nc4cc(F)ccc24)CCCC3)c1)N(C)C` ?
output: 137

input: // same read-out, input: `O=C(NCCCCCCNc1c2c(nc3cc(Br)ccc13)CCCC2)Oc1ccc2cc[nH]c2c1`
output: 57.9

input: Can you check `O=C(NCCCCCNc1c2c(nc3cc(Br)ccc13)CCCC2)Oc1ccc2cc[nH]c2c1` next?
output: 43.1

input: Lookup `O=C(NCCCCCCNc1c2c(nc3cc(Br)ccc13)CCCC2)Oc1ccc(-c2cc3cccnc3[nH]2)cc1`
output: 556

input: What do you get for `O=C(NCCCNc1c2c(nc3ccccc13)CCCC2)Oc1ccc2cc[nH]c2c1` ?
output: 7.23

input: Moving on to the next compound: `O=C(NCCCCCCNc1c2c(nc3ccccc13)CCCC2)Oc1ccc2cc[nH]c2c1`
output: 76.5

input: What do you get for `C[C@@H](c1cccc(OC(=O)NCCCCCNc2c3c(nc4cc(Br)ccc24)CCCC3)c1)N(C)C` ?
output: 21.6

input: Try `O=C(NCCCCCNc1c2c(nc3cc(F)ccc13)CCCC2)Oc1ccc(-c2cc3cccnc3[nH]2)cc1` next.
output: 334

input: Also `O=C(NCCCCCNc1c2c(nc3cc(F)ccc13)CCCC2)Oc1ccc2cc[nH]c2c1` , if possible.
output: 40

input: Another compound to check: `O=C(NCCCCCCNc1c2c(nc3cc(Cl)ccc13)CCCC2)Oc1ccc(-c2cc3cccnc3[nH]2)cc1`
output: 280

input: Another compound: `O=C(NCCCCNc1c2c(nc3ccccc13)CCCC2)Oc1ccc2cc[nH]c2c1`
output: 1.35

input: Follow-up item: `O=C(NCCCCCNc1c2c(nc3ccccc13)CCCC2)Oc1ccc2cc[nH]c2c1`
output: 23.3

input: Also `O=C(NCCNc1c2c(nc3ccccc13)CCCC2)Oc1ccc(-c2cc3cccnc3[nH]2)cc1` , if possible.
output: 52.2

input: Queued: `O=C(NCCCCCNc1c2c(nc3ccccc13)CCCC2)Oc1ccc(-c2cc3cccnc3[nH]2)cc1`
output: 21.2

input: Another compound to check: `C[C@@H](c1cccc(OC(=O)NCCCCCCNc2c3c(nc4cc(Cl)ccc24)CCCC3)c1)N(C)C`
output: 92.8

input: Entry to check: `O=C(NCCCCCNc1c2c(nc3cc(Cl)ccc13)CCCC2)Oc1ccc(-c2cc3cccnc3[nH]2)cc1`
output: 1660

input: Query `O=C(NCCCCCNc1c2c(nc3cc(Br)ccc13)CCCC2)Oc1ccc(-c2cc3cccnc3[nH]2)cc1` next
output: 791

input: Same question, `O=C(NCCNc1c2c(nc3ccccc13)CCCC2)Oc1ccc2cc[nH]c2c1` this time
output: 0.37

input: Follow-up entry: `C[C@@H](c1cccc(OC(=O)NCCCCCNc2c3c(nc4cc(Cl)ccc24)CCCC3)c1)N(C)C`
output: 26.9

input: Now consider `O=C(NCCCCCCNc1c2c(nc3cc(Cl)ccc13)CCCC2)Oc1ccc2cc[nH]c2c1` and answer again.
output: 64.4

input: Entry `O=C(NCCCCCCNc1c2c(nc3ccccc13)CCCC2)Oc1ccc(-c2cc3cccnc3[nH]2)cc1` please
output: 18.3

input: // repeat for `O=C(NCCCCNc1c2c(nc3ccccc13)CCCC2)Oc1ccc(-c2cc3cccnc3[nH]2)cc1` and report
output: 20.5

input: Also `C[C@@H](c1cccc(OC(=O)NCCCCCNc2c3c(nc4ccccc24)CCCC3)c1)N(C)C` , if possible.
output: 12

input: Record: `O=C(NCCCNc1c2c(nc3ccccc13)CCCC2)Oc1ccc(-c2cc3cccnc3[nH]2)cc1`
output: 16.1
